- measured.on: Y188L mutant RT (HIV-1 RT) (Human immunodeficiency virus type 1 group M subtype B, UniProt P03366, Y787L)
- Construct: mutations that occur in the reverse transcriptase segment of the pol gene
- test: biochemical
- conditions: IC50 Y188L (nM)
attribute.measured: IC50

Record excerpt, results attached:
CCN1c2ncc(CCOc3ccc(C(=O)O)c4c3CCN(C(=O)OC)C4)cc2C(=O)N(C)c2cccnc21 :: 100 to 1000 nM
CCN1c2ncc(CCOc3ccc(/C=C/C(=O)O)c4ccccc34)cc2C(=O)N(C)c2cccnc21 [Entry 2013] :: > 1000 nM
CCN1c2ncc(CCOc3ccc(C(C)CC(=O)O)c4ccccc34)cc2C(=O)N(C)c2cccnc21 (stereo not shown) :: > 1000 nM

input: // returns reported IC50 for input CCN1c2ncc(CCOc3ccc(C(=O)O)c4c3CCN(C(=O)N(C)C)C4)cc2C(=O)N(C)c2cccnc21
output: 100 to 1000 nM

###

- measured.on: Y188L mutant RT (HIV-1 RT) (Human immunodeficiency virus type 1 group M subtype B, UniProt P03366, Y787L)
- Construct: mutations that occur in the reverse transcriptase segment of the pol gene
- test: biochemical
- conditions: IC50 Y188L (nM)
- Source text: Based upon testing of these compounds, as described below, it is known that they inhibit the RNA-dependent DNA polymerase activity of HIV-1 RT. […] Utilising the Reverse Transcriptase (RT) Assay described below, compounds can be tested for their ability to inhibit the RNA-dependent DNA polymerase activity of HIV-1 RT. Certain specific compounds described in the Examples which appear below, were so tested. The results of this testing appear in Table 4 as IC50 (nM) and Table 5 as EC50 (nM). […]
Task for the reader: assign each of the following compounds its reported IC50.

CCN1c2ncc(CCOc3ccc(C(=O)O)c4c3CCCC4)cc2C(=O)N(C)c2ccc(Cl)nc21 :: 100 to 1000 nM
CCN1c2ncc(CCOc3ccc(C(=O)O)c4ccccc34)cc2C(=O)N(C)c2cccnc21 :: > 1000 nM
CCN1c2ncc(CCOc3ccc(C(=O)O)c4ccccc34)cc2C(=O)Nc2c(C)cc(F)nc21 :: > 1000 nM

Your task in this section: give IC50 for each listed record.
1. CCN1c2ncc(CCOc3ccc(C(=O)O)c4c3CCC4)cc2C(=O)N(C)c2cccnc21
2. CCN1c2ncc(CCOc3ccc(C4CC4C(=O)O)c4ccccc34)cc2C(=O)N(C)c2ccc(F)nc21 (centres unmarked)
3. CCN1c2ncc(CCOc3ccc(/C=C/C(=O)O)c4ccccc34)cc2C(=O)N(C)c2cccnc21 [Entry 1028]

output:
1: > 1000 nM; 2: 100 to 1000 nM; 3: 100 to 1000 nM

Your task in this section: give IC50 for each listed record.
1. CCN1c2ncc(CCOc3ccc(CC(C)C(=O)O)c4ccccc34)cc2C(=O)N(C)c2cccnc21 (centres unmarked)
2. CCN1c2ncc(CCOc3ccc(CC(=O)NN)c4ccccc34)cc2C(=O)N(C)c2cccnc21

output:
> 1000 nM
100 to 1000 nM

###

- measured.on: V106A mutant RT (HIV-1 RT) (Human immunodeficiency virus type 1 group M subtype B, UniProt P03366, V705A)
- Construct: mutations that occur in the reverse transcriptase segment of the pol gene
- test: biochemical
- conditions: read-out: IC50 V106A
pIC50: −log10 of the molar value.
attribute.measured: pIC50

Your task in this section: give pIC50 for each listed record.
1. CCN1c2ncc(CCOc3ccc(/C=C/C(=O)O)c4ccccc34)cc2C(=O)N(C)c2cccnc21 [Entry 2013]
2. CCN1c2ncc(CCOc3ccc(/C=C/C(=O)O)c4ccccc34)cc2C(=O)N(C)c2ccc(F)nc21 [Entry 2014]
3. CCN1c2ncc(CCOc3ccc(NC(=O)CC(C)(C)C(=O)O)c4ccccc34)cc2C(=O)N(C)c2cccnc21 [Entry 2007]
4. CCN1c2ncc(CCOc3ccc(CC(=O)NS(C)(=O)=O)c4ccccc34)cc2C(=O)N(C)c2cccnc21 [Entry 2012]

output:
1. < 6.00
2. 6.00 to 7.00
3. < 6.00
4. < 6.00

###

- measured.on: K103N/Y181C double mutant RT (HIV-1 RT) (Human immunodeficiency virus type 1 group M subtype B, UniProt P03366, K702N/Y780C)
- Construct: mutations that occur in the reverse transcriptase segment of the pol gene
- test: biochemical
- Description: Based upon testing of these compounds, as described below, it is known that they inhibit the RNA-dependent DNA polymerase activity of HIV-1 RT. […] Utilising the Reverse Transcriptase (RT) Assay described below, compounds can be tested for their ability to inhibit the RNA-dependent DNA polymerase activity of HIV-1 RT. Certain specific compounds described in the Examples which appear below, were so tested. The results of this testing appear in Table 4 as IC50 (nM) and Table 5 as EC50 (nM). […]
pIC50: −log10 of the molar value.
Task for the reader: assign each of the following molecules its reported pIC50.

Record excerpt, results attached:
CCN1c2ncc(CCOc3ccc(C(=O)O)c4ccccc34)cc2C(=O)Nc2c(C)cc(Cl)nc21 :: 6.00 to 7.00
CCN1c2ncc(CCOc3ccc(CC(C)C(=O)O)c4ccccc34)cc2C(=O)N(C)c2cccnc21 (stereo not shown) :: 6.00 to 7.00
CCN1c2ncc(CCOc3ccc(CC(=O)NN)c4ccccc34)cc2C(=O)N(C)c2ccc(Cl)nc21 :: > 7.00

Next, consider the following molecule.
input: // returns reported pIC50 for input CCN1c2ncc(CCOc3ccc(C(=O)O)c4c3CCN(C(=O)OC(C)(C)C)C4)cc2C(=O)N(C)c2cccnc21
output: 6.00 to 7.00

###

Task for the reader: assign each of the following compounds its reported EC50.
- Tested on: K103N/Y181C (HIV-1 double mutant strain)
- test: EC50 assay, K103N/Y181C strain
- Type: cell-based
- conditions: Human immunodeficiency virus 1, read-out: EC50 K103N/Y181C (nM), K103N/Y181C double mutant

Record excerpt, results attached:
CCN1c2ncc(CCOc3ccc(CC(C)C(=O)O)c4ccccc34)cc2C(=O)N(C)c2cccnc21 (stereo not shown) :: < 100 nM
CCN1c2ncc(CCOc3ccc(C4CC4C(=O)O)c4ccccc34)cc2C(=O)N(C)c2ccc(F)nc21 (stereo not shown) :: 100 to 1000 nM
CCN1c2ncc(CCOc3ccc(C(=O)O)c4c3CCN(C(=O)N(C)C)C4)cc2C(=O)N(C)c2cccnc21 :: < 100 nM
CCN1c2ncc(CCOc3ccc(/C=C/C(=O)O)c4ccccc34)cc2C(=O)N(C)c2ccc(C)nc21 :: < 100 nM
CCN1c2ncc(CCOc3ccc(C(=O)O)c4c3CCC4)cc2C(=O)N(C)c2ccc(Cl)nc21 :: < 100 nM
CCN1c2ncc(CCOc3ccc4cc(C(=O)NN)ccc4c3)cc2C(=O)N(C)c2cccnc21 :: 100 to 1000 nM

Next, consider the following compound.
input: // returns reported EC50 for input CCN1c2ncc(CCOc3ccc(CC(=O)O)c4ccccc34)cc2C(=O)N(C)c2ccc(F)nc21
output: < 100 nM

###

- measured.on: Y188L mutant RT (HIV-1 RT) (Human immunodeficiency virus type 1 group M subtype B, UniProt P03366, Y787L)
- Construct: mutations that occur in the reverse transcriptase segment of the pol gene
- test: biochemical
- conditions: IC50 Y188L (nM)
Task for the reader: assign each of the following molecules its reported IC50.

Record excerpt, results attached:
CCN1c2ncc(CCOc3ccc(C(=O)O)c4c3CCN(C(C)=O)C4)cc2C(=O)N(C)c2cccnc21 :: > 1000 nM
CCN1c2ncc(CCOc3ccc(CCC(=O)O)c4c3CCCC4)cc2C(=O)N(C)c2cccnc21 :: > 1000 nM
CCN1c2ncc(CCOc3ccc(/C=C(\C)C(=O)O)c4ccccc34)cc2C(=O)Nc2c(C)cc(F)nc21 :: > 1000 nM
CCN1c2ncc(CCOc3ccc(C(=O)O)c4ccccc34)cc2C(=O)N(C)c2ccc(Cl)nc21 :: 100 to 1000 nM
CCN1c2ncc(CCOc3ccc(/C=C(\C)C(=O)O)c4ccccc34)cc2C(=O)Nc2c(C)cc(Cl)nc21 :: > 1000 nM
CCN1c2ncc(CCOc3ccc(/C=C/C(=O)O)c4ccccc34)cc2C(=O)N(C)c2ccc(F)nc21 [Entry 1032] :: 100 to 1000 nM
CCN1c2ncc(CCOc3ccc(/C=C/C(=O)O)c4ccccc34)cc2C(=O)Nc2c(C)cc(F)nc21 :: > 1000 nM
CCN1c2ncc(CCOc3ccc(CCC(=O)O)c4ccccc34)cc2C(=O)Nc2c(C)cc(Cl)nc21 :: > 1000 nM

Your task in this section: give IC50 for each listed record.
1. CCN1c2ncc(CCOc3ccc(C(=O)O)c4ccccc34)cc2C(=O)N(C)c2ccc(F)nc21
2. CCN1c2ncc(CCOc3ccc(C(=O)O)c4ccccc34)cc2C(=O)Nc2c(C)ccnc21
3. CCN1c2ncc(CCOc3ccc(/C=C(\C)C(=O)O)c4ccccc34)cc2C(=O)Nc2c(C)ccnc21

output:
["> 1000 nM", "> 1000 nM", "> 1000 nM"]
